Biological target: human JAK1 (a.a. 837-1142)
Test: In vitro JAK kinase assay (HTRF, phosphorylation of a biotinylated peptide), JAK1
Type: biochemical
Settings: ratio of JAK2 IC50 to JAK1 IC50, measured at 1 mM ATP
Measured IC50 Ratio JAK2/JAK1 accompanies every entry in the list below.
In your answer, state the number alone without any accompanying words.

// worked examples, IC50 Ratio JAK2/JAK1 included
COc1cccc(NC(=O)N2CCC(N3CC(CC#N)(n4cc(-c5ncnc6[nH]ccc56)cn4)C3)CC2)c1 [Example 181]; 4.9
N#CCC1(n2ccc(-c3ncnc4[nH]ccc34)c2)CN(C2CCN(C(=O)Nc3ccc(F)cc3F)CC2)C1 [Example 286]; 13.1
N#CCC1(n2cc(-c3ncnc4[nH]ccc34)cn2)CN(C2CCN(S(=O)(=O)c3ccc(C#N)cc3)CC2)C1 [Example 249]; 2.1

Indicate the recorded IC50 Ratio JAK2/JAK1 value for this compound: N#CCC1(n2cc(-c3ncnc4[nH]ccc34)cn2)CN(C2CCN(C(=O)Nc3c(F)cccc3F)CC2)C1 [Example 156]
11.2
